tested on: ASPC1; assay: Anticlonogenic activity against human Aspc-1 cells at 2 uM after 21 days by crystal violet staining based assay relative to control; assay type: functional; settings: ASPC1, 504 h
parameter_measured: inhibition at 2 µM (%)

1. COc1cc(-n2c(-c3cccs3)cc(/C=C3\SC(=O)NC3=O)c2-c2cccs2)ccc1-c1ccc(/C=C2\SC(=O)NC2=O)cc1 | 89
2. CCc1cc(-c2ccc(-n3c(-c4ccccc4)cc(/C=C4\SC(=O)NC4=O)c3-c3ccccc3)cc2)ccc1/C=C1\SC(=O)NC1=O | 51
3. Cc1cc(/C=C2\SC(=O)NC2=O)c(C)n1-c1ccc(-c2ccc(/C=C3\SC(=O)NC3=O)c(Cl)c2)cc1 | 18

====

Reported values of pIC50 for individual entries
experiment: Inhibition of recombinant human His-tagged KGA R387A mutant expressed in Escherichia coli BL21(DE3)pLysS using glutamine substrate preincubated for 10 mins followed by substrate addition measured after 60 mins
pIC50: −log10 of the molar value.
parameter_measured: pIC50

1) O=C1NC(=O)/C(=C/c2ccc(-c3ccc(-n4c(-c5ccccc5)cc(/C=C5\SC(=O)NC5=O)c4-c4ccccc4)cc3)cc2)S1 | 5.05
2) O=C(Cc1ccccc1)Nc1nnc(CCSCCc2nnc(NC(=O)Cc3ccccc3)s2)s1 | 7.20
3) Cc1cc(/C=C2\SC(=O)NC2=O)c(C)n1-c1ccc(-c2ccc(/C=C3\SC(=O)NC3=O)c(Cl)c2)cc1 | 4.96

====

assay: Total clearance in Sprague-Dawley rat at 2 mg/kg, iv by HPLC-MS analysis; format: ADME, organism-based; settings: in vivo
parameter_measured: clearance (mL/min/kg)

1) O=C1NC(=O)/C(=C/c2ccc(-c3ccc(-n4c(-c5cccs5)cc(/C=C5\SC(=O)NC5=O)c4-c4cccs4)cc3)cc2)S1 | 0.9

====

target: Glutaminase kidney isoform, mitochondrial (Homo sapiens); assay: Inhibition of recombinant human His-tagged KGA (L123 to L669 residues) expressed in Escherichia coli BL21(DE3)pLysS using glutamine substrate preincubated for 10 mins followed by substrate addition measured after 60 mins by glutamate dehydrogenase coupled enzyme assay
Sequence (O94925 whole entry, the tested form may be a part, canonical isoform): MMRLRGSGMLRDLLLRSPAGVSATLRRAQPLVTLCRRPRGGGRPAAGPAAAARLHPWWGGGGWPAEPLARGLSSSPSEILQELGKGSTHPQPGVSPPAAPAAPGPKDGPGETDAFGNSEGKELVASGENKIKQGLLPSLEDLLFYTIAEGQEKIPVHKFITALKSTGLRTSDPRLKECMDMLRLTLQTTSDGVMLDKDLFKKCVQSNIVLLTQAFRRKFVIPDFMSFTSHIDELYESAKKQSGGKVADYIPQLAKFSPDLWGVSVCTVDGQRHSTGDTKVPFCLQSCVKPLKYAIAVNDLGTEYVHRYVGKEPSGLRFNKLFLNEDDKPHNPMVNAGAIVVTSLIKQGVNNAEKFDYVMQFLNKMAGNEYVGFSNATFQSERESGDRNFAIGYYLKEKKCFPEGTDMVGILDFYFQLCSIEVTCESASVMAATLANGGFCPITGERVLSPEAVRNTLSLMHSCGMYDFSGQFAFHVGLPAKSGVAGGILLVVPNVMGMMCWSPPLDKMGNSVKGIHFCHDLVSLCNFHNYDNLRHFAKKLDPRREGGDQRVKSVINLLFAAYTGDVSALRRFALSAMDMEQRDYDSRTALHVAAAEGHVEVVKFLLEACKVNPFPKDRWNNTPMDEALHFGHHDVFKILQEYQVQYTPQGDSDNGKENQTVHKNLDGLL
Reported IC50 by item:
parameter_measured: IC50 (µM)

1. CCc1cc(-c2ccc(-n3c(C)cc(/C=C4\SC(=O)NC4=O)c3C)cc2C#N)ccc1/C=C1\SC(=O)NC1=O | 0.059
2. O=C1NC(=O)/C(=C/c2cc(-c3ccccc3)n(-c3ccc(Br)cc3)c2-c2ccccc2)S1 | 4.9
3. CCc1cc(-c2ccc(-n3c(C)cc(/C=C4\SC(=O)NC4=O)c3C)cc2)ccc1/C=C1\SC(=O)NC1=O | 0.039
4. O=C1NC(=O)/C(=C/c2ccc(-c3ccc(-n4c(-c5ccccc5)cc(/C=C5\SC(=O)NC5=O)c4-c4ccccc4)cc3)cc2)S1 | 0.045
5. CCc1cc(-c2ccc(-n3c(C)cc(/C=C4\SC(=O)NC4=O)c3C)cc2OC)ccc1/C=C1\SC(=O)NC1=O | 0.066
6. O=C1NC(=O)/C(=C/c2cc(-c3cccs3)n(-c3ccc(Br)cc3)c2-c2cccs2)S1 | 0.754
7. CCc1cc(-c2ccc(-n3c(-c4cccs4)cc(/C=C4\SC(=O)NC4=O)c3-c3cccs3)cc2)ccc1/C=C1\SC(=O)NC1=O | 0.054
8. CCc1cc(-c2ccc(-n3c(-c4ccccc4)cc(/C=C4\SC(=O)NC4=O)c3-c3ccccc3)cc2)ccc1/C=C1\SC(=O)NC1=O | 0.056
